Tested on: CHO cells
Test: CHO cell toxicity, MTS assay, 48 h
Assay type: cell-based, Chinese hamster
Settings: Cricetulus griseus, CHO, 37° C., MTS reagent, read-out: CHO 48 h IC50 value
Method: In each case, the chalcone system 8 was more toxic than the corresponding ring-closed system, 9. The CHO assay was conducted to assess the general toxicity of each flavonoid drug. […] The MTS reagent (Promega Cell Titer 96 Aqueous non-radioactive cell proliferation reagent) was added (20 μL) and the CHO cells were incubated for an additional 4h and then absorbance at 490 nm was measured on a BioTek Synergy MX plate reader. […]

| smiles.data | censoring.operator | IC50 / µM |
| --- | --- | --- |
| COc1ccc(C)cc1/C=C/C(=O)c1ccccc1O | = | 14.2 |
| COc1ccccc1-c1oc2ccccc2c(=O)c1O | > | 100 |
| COc1cc(OC)c(/C=C/C(=O)c2ccccc2O)cc1Br | = | 16.9 |
| COc1ccccc1/C=C/C(=O)c1ccccc1O | = | 25.5 |
| COc1ccc(Br)cc1/C=C/C(=O)c1ccc2ccccc2c1O | = | 15.6 |

----------
System: mock transfected 293T HEK cells
Test: PathDetect Elk1 luminescence in mock transfected (empty pcDNA3 vector) 293T HEK cells, off-target effect
Assay type: cell-based, human
Details: Homo sapiens, 10 μM vs 1% DMSO control, Equation 1; read-out: Effect(%) on mock cells with each drug at 10 μM
Attribute: activation at 10 µM
measured.parameter: activation at 10 µM (%)

| molecule | recorded.number |
| --- | --- |
| COc1ccc(I)cc1/C=C/C(=O)c1ccccc1O | 100 |
| COc1ccccc1/C=C/C(=O)c1ccccc1O | 8 |
| CCOc1ccc(Br)cc1/C=C/C(=O)c1ccccc1O | -3 |
| COc1ccc(Br)cc1C1CC(=O)c2ccccc2O1 (stereo not shown) [Compound 13b, 2-(5-Bromo-2-methoxyphenyl)chroman-4-one] | -5 |
| COc1ccc(Br)cc1/C=C/C(=O)c1ccc2ccccc2c1O | 35 |
| CCOc1ccc(Cl)cc1/C=C/C(=O)c1ccccc1O | 33 |
| COc1ccc(Cl)cc1C1CC(=O)c2ccccc2O1 (stereo not shown) [Compound 13h] | -14 |
| COc1cc(OC)c(/C=C/C(=O)c2ccccc2O)cc1Br | 5 |
| COc1ccc(Cl)cc1-c1oc2ccccc2c(=O)c1O | 2 |
| COc1ccc(Br)cc1/C=C/C(=O)c1c(O)cccc1OC | 290 |
| COc1cc(OC)c(-c2oc3ccccc3c(=O)c2O)cc1Br | -17 |
| COc1ccccc1-c1oc2ccccc2c(=O)c1O | -1 |
| COc1ccc(Br)cc1-c1oc2cccc(OC)c2c(=O)c1O | -1 |
| COc1ccccc1-c1cc(=O)c2ccccc2o1 [Compound 11c, 2-(2-Methoxyphenyl)-4H-chromen-4-one] | 3 |
| COc1ccc(Br)cc1-c1cc(=O)c2c(O)cccc2o1 [Compound 12b] | -16 |
| COc1ccc(Br)cc1-c1oc2ccccc2c(=O)c1O | -11 |
| COc1ccc(C)cc1/C=C/C(=O)c1ccccc1O | -4 |
| COc1ccc(C)cc1-c1oc2ccccc2c(=O)c1O | 0 |
| COc1ccc(I)cc1-c1oc2ccccc2c(=O)c1O | -23 |

----------
Listed compounds paired with reported cytotoxicity at 20 μM
Assay: TZMbI assay for cell safety (cell viability and growth, CytoTox Glo)
Details: human, TZMbI cells, 20 μM, Experiment 2A; read-out: % decrease in viability compared to 0.1% DMSO vehicle based on viable cell luminescence

| compound | cytotoxicity at 20 μM (%) |
| --- | --- |
| COc1ccc(Br)cc1-c1oc2ccccc2c(=O)c1O | -25.9 |
| CCOc1ccc(Cl)cc1-c1oc2ccccc2c(=O)c1O | 21.6 |
| CCOc1ccc(Br)cc1-c1oc2ccccc2c(=O)c1O | 14.8 |
| COc1ccccc1-c1oc2ccccc2c(=O)c1O | -21.6 |
| COc1ccc(Cl)cc1-c1oc2ccccc2c(=O)c1O | 7.83 |
| COc1ccc(Br)cc1-c1cc(=O)c2c(OCc3ccccc3)cccc2o1 [Compound 11b] | -18.1 |
| COc1ccc(Br)cc1-c1cc(=O)c2c(O)cccc2o1 [Compound 12b] | 49.1 |
| COc1ccccc1-c1cc(=O)c2c(O)cccc2o1 [Compound 12a] | 131 |
| COc1cc(Br)cc(-c2oc3ccccc3c(=O)c2O)c1OC | -23.7 |
| COc1ccc(Br)cc1/C=C/C(=O)c1c(O)cccc1OCc1ccccc1 | 55.2 |
| COc1ccc(Br)cc1/C=C/C(=O)c1ccc2ccccc2c1O | 90 |
